I'd appreciate it if you could supply GI50 values for the items below.
tested on: A498; assay: NCI tumour cell line growth inhibition, 48 h
The source made the active and inactive calls. Cut-off read from the data, not from the text of the source: active = GI50 up to about 1.1 µM and inactive = higher.

Cc1ccccc1C(C#N)C(=O)C(=O)Nc1cccc(Cl)c1 (stereo unspecified) : > 100 µM (inactive)
Cn1nc(N)nc1N=S(C)(C)=N : > 100 µM (inactive)

Record GI50 per entry; entries follow.
1. O=C(CN1CCN(c2ccccn2)CC1)N1CCCn2c1nc1ccccc1c2=O
2. COC(=O)c1c(O)ccc2c1c1cc3ccccc3c(O)c1n2CCc1ccc(OC)c(OC)c1
3. CC(C)CN(CC#N)CC(C)C
4. CC1=Nc2c(ccc3c2C(=O)c2ccccc2C3=O)NC(c2ccncc2)C1 (stereo unspecified)
5. COc1ccc(OC)c2cc(C3(C)SCCCS3)ccc12
6. N#C/C(=C/c1ccc2c(c1)OCO2)C(=O)c1ccccc1
7. CCOc1ccc(-n2c(=O)n3c(Nc4ccc(Cl)cc4)nc4c(c(=O)n(C)c(=O)n4C)n3c2=O)cc1
8. CC1(CCCO)CCCCCCCCCC(C)(CCCO)C1=O (stereo unspecified)

1: > 100 µM (inactive); 2: > 100 µM (inactive); 3: > 100 µM (inactive); 4: 23.8 µM (inactive); 5: > 100 µM (inactive); 6: > 100 µM (inactive); 7: 22.9 µM (inactive); 8: > 100 µM (inactive)

Return GI50 (reported value) for this molecule: OCC(O)COc1c(Cl)cc(Cl)cc1Cl (stereo unspecified) > 100 µM (inactive)
